Test system: HEK293
Assay: Cytotoxic Profiling of Annotated Libraries Using Quantitative High-Throughput Screening (AID 1296008); also: nearly all actives have a fitted effect of over 60% in size; also: potency is read from the fitted curve at half-maximal effect
Conditions: Five cell lines viability, CellTiter-Glo ATP luminescence, 48-72 h
Inconclusive results are not listed. Calls of active or inactive are those of the source. Calls follow the shape of the dose curve; as a rule, active = well fitted inhibition curve with a large enough effect; inconclusive = small, poorly fitted or top-dose-only effect; inactive = flat fitted curve, though single readings scatter.
Recorded endpoint: Potency

Some solved entries appear below for comparison.
Molecule: COC1=C(OC)C(=O)C(CCCCCCCCCCO)=C(C)C1=O
Target entity: HEK293
Potency: 23.7 µM (active)
//
Molecule: Cc1nc(Nc2ncc(C(=O)Nc3c(C)cccc3Cl)s2)cc(N2CCN(CCO)CC2)n1
Target entity: HEK293
Potency: 23.7 µM (active)
//
Molecule: CC1=C(C)C(=O)C(C(CCCCCC(=O)O)c2ccccc2)=C(C)C1=O (stereo not drawn)
Target entity: HEK293
Potency: inactive
//
Molecule: O=c1ccc2ccc(O)c(O)c2o1
Target entity: HEK293
Potency: inactive

// for each molecule in input: emit Potency
1. Nc1nc(Cl)nc2c1ncn2[C@H]1C[C@H](O)[C@@H](CO)O1
2. Cn1c(NCCN(CCO)CCCc2ccc([N+](=O)[O-])cc2)cc(=O)n(C)c1=O

2.35 µM (active)
inactive

// for each molecule in input: emit Potency
1. COc1cc2c(cc1OC)C1CC(=O)C(CC(C)C)CN1CC2 (stereo not drawn)
2. CCCCC(CC)COC(=O)C(C#N)=C(c1ccccc1)c1ccccc1 (stereo not drawn)
3. CC(C)[C@H](N)C(=O)OCCOCn1cnc2c(=O)[nH]c(N)nc21
4. CCN(CCO)CCCC(C)Nc1ccnc2cc(Cl)ccc12 (stereo not drawn)
5. Cc1ccc(C(=O)c2cc(O)c(O)c([N+](=O)[O-])c2)cc1

1. inactive
2. 18.8 µM (active)
3. inactive
4. inactive
5. inactive

// for each molecule in input: emit Potency
1. C[C@H](Cn1cnc2c(N)ncnc21)OCP(=O)(O)O
2. Cc1c(C(=O)NN2CCCCC2)nn(-c2ccc(Cl)cc2Cl)c1-c1ccc(Cl)cc1
3. Cc1cc2cc3c(C)cc(=O)oc3c(C)c2o1
4. Nc1ncn([C@H]2C[C@H](O)[C@@H](CO)O2)c(=O)n1
5. CC1(C)C(=O)N(CCN2CCC(C(=O)c3ccc(F)cc3)CC2)c2ccccc21

1: inactive; 2: 26.4 µM (active); 3: inactive; 4: 18.7 µM (active); 5: inactive

###

Assay: Quantitative High-Throughput drug screen in 47 multiple myeloma cell lines against the NCATS MIPE library collection: OPM1_PLB cell viability assay (AID 1918989); also: nearly all actives have a fitted effect of over 40% in size
Settings: CellTiter-Glo, 48 h; series mostly up to 45.8 µM
Records with an inconclusive call do not appear. Active and inactive are the calls of the source. Calls come from the whole dose curve; as a rule, active = well fitted cell-killing curve with a large enough effect; inconclusive = small, poorly fitted or top-dose-only effect, or effect the other way; inactive = no such curve, though single readings can be large or run the other way.
Write down the outcome that applies. Available outcomes: active, inactive

Please review the following examples before continuing.
Compound: COc1c(O)cc2c(c1O)[C@@H]1O[C@H](CO)[C@@H](O)[C@H](O)[C@H]1OC2=O
Class name: inactive

Compound: CN(C)C(=O)COC(=O)Cc1ccc(OC(=O)c2ccc(N=C(N)N)cc2)cc1
Class name: active

Compound: O=C1NC(=O)C(c2ccccc2[N+](=O)[O-])=C1Nc1ccc(O)c(Cl)c1
Class name: inactive

Compound: CC1(C)NC(=O)N(c2ccc([N+](=O)[O-])c(C(F)(F)F)c2)C1=O
Class name: inactive

Compound: COc1cc2c(cc1OC)C1CC(=O)C(CC(C)C)CN1CC2 (stereo unspecified)
Class name: inactive

Compound: CN(c1nccc(=O)[nH]1)C1CCN(c2nc3ccccc3n2Cc2ccc(F)cc2)CC1
Class name: active

Compound: Cc1cc(=O)oc2cc(O)ccc12
Class name: inactive

Compound: CNC[C@@H](O)[C@@H](O)[C@H](O)[C@H](O)CO
Class name: inactive

Tell me the recorded outcome of this test for O=C(O)c1cccnc1Nc1cccc(C(F)(F)F)c1 .
inactive

Tell me the recorded outcome of this test for Oc1ccc(OCc2ccccc2)cc1 .
inactive

Tell me the recorded outcome of this test for CCN(CC)C(=S)SSC(=S)N(CC)CC .
active

###

Assay: qHTS profiling of the MIPE4 collection as inhibitors of Plasmodium falciparum (3D7) proliferation (AID 743344)
Conditions: P. falciparum 3D7 in erythrocytes, SYBR Green DNA fluorescence, 72 h; at 28.5 µM (top of the series) unless noted
// map parasite growth, % of DMSO control to label using lower segment: < 30%; middle segment: ≥ 30% and < 80%; upper segment: ≥ 80%

Compound: CCN(CC)C(=S)SSC(=S)N(CC)CC
Class name: middle segment
//
Compound: NNc1nncc2ccccc12
Class name: upper segment
//
Compound: C[C@H](Cc1ccc(O)c(O)c1)[C@@H](C)Cc1ccc(O)c(O)c1
Class name: lower segment
//
Compound: O=C(NC(Cc1cc(=O)[nH]c2ccccc12)C(=O)O)c1ccc(Cl)cc1 (configuration not stated)
Class name: upper segment
//
Compound: O=C(O)CCNC(=O)c1ccc(N=Nc2ccc(O)c(C(=O)O)c2)cc1
Class name: middle segment

Assign a category based on measured parasite growth, % of DMSO control for CC[C@]1(O)C[C@H]2CN(CCc3c([nH]c4ccccc34)[C@@](C(=O)OC)(c3cc4c(cc3OC)N(C=O)[C@H]3[C@@](O)(C(=O)OC)[C@H](OC(C)=O)[C@]5(CC)C=CCN6CC[C@]43[C@@H]65)C2)C1 and give only the class name.
lower segment

Assign a category based on measured parasite growth, % of DMSO control for CCCCc1ccc2nc(NC(=O)OC)[nH]c2c1 and give only the class name.
middle segment

Assign a category based on measured parasite growth, % of DMSO control for NC(=NCc1ccccc1)NC(=O)c1nc(Cl)c(N)nc1N and give only the class name.
upper segment

Assign a category based on measured parasite growth, % of DMSO control for Oc1ccc(-c2nc(-c3ccc(F)cc3)c(-c3ccncc3)[nH]2)cc1 and give only the class name.
middle segment

Assign a category based on measured parasite growth, % of DMSO control for CC(C)C[C@H](NC(=O)[C@H](Cc1ccccc1)NC(=O)c1cnccn1)B(O)O and give only the class name.
lower segment

Assign a category based on measured parasite growth, % of DMSO control for Nc1nc(Cl)nc2c1ncn2[C@H]1C[C@H](O)[C@@H](CO)O1 and give only the class name.
upper segment

###

Assay: qHTS of pediatric cancer cell lines to identify multiple opportunities for drug repurposing: Primary screen for SJ-GBM2 cells (AID 1347091)
Settings: SJ-GBM2 viability, CellTiter-Glo luminescence, 48 h; series mostly up to 46 µM
Inconclusive results are not listed. Active and inactive are the calls of the source. The call rests on the fitted dose curve; in most records, active means well fitted cell-killing curve with a large enough effect; inconclusive means small, poorly fitted or top-dose-only effect; inactive means no such curve, though single readings can be large or run the other way.
Write down the outcome that applies. Available outcomes: true = active, false = inactive

Tell me the recorded outcome of this test for Cc1nc2n(c(=O)c1CCN1CCC(c3noc4cc(F)ccc34)CC1)CCCC2 .
false

Tell me the recorded outcome of this test for CC1(C)CCC(C)(C)c2cc(NC(=O)c3ccc(C(=O)O)cc3)ccc21 .
false

Tell me the recorded outcome of this test for Nc1cccc2c1CN(C1CCC(=O)NC1=O)C2=O (stereo unspecified) .
false

Tell me the recorded outcome of this test for CCCCCCCCCCCCCCCCCCCCCCO .
false

Tell me the recorded outcome of this test for Cc1cc(=O)c2c(O)c3c(O)cc(=O)c4c3c3c(cc(O)c1c23)C(C)(C)C=4O .
true

Tell me the recorded outcome of this test for Cc1ncc([N+](=O)[O-])n1CC(C)O (stereo unspecified) .
false

Tell me the recorded outcome of this test for CC(=O)NC[C@H]1CN(c2ccc(N3CCOCC3)c(F)c2)C(=O)O1 .
false

Tell me the recorded outcome of this test for Cc1cccc(CN2CCN(C(c3ccccc3)c3ccc(Cl)cc3)CC2)c1 (stereo unspecified) .
false

###

Assay: Quantitative High-Throughput drug screen in 47 multiple myeloma cell lines against the NCATS MIPE library collection: RPMI8226_ATCC cell viability assay (AID 1919871); also: nearly all actives have a fitted effect of over 30% in size
Details: RPMI8226 myeloma viability, CellTiter-Glo ATP luminescence, 48 h; series mostly up to 45.8 µM
Records with an inconclusive call do not appear. The source made the active and inactive calls. Calls come from the whole dose curve; as a rule, active = well fitted cell-killing curve with a large enough effect; inconclusive = small, poorly fitted or top-dose-only effect, or effect the other way; inactive = no such curve, though single readings can be large or run the other way.
Write down the outcome that applies. Available outcomes: active, inactive

Please review the following examples before continuing.
Molecule: CCOC(=O)C1=C(O)C(=O)N(Cc2ccccc2)C1
Class name: active
--
Molecule: Nc1ccn([C@@H]2O[C@H](CO)[C@@H](O)C2O)c(=O)n1 (stereo not given in full)
Class name: inactive
--
Molecule: CN1C(C(=O)Nc2ccccn2)=C(O)c2sccc2S1(=O)=O
Class name: inactive
--
Molecule: CCC(C)(Oc1ccc(C2(c3ccc(OC(C)(CC)C(=O)O)cc3)CCCCC2)cc1)C(=O)O (stereo not given)
Class name: inactive
--
Molecule: CN(C)c1ccc2nc3ccc(=[N+](C)C)cc-3sc2c1
Class name: active

Tell me the recorded outcome of this test for CN1CCC(=C2c3ccccc3CCc3sccc32)CC1 .
active

Tell me the recorded outcome of this test for c1ccc2[nH]c(-c3cscn3)nc2c1 .
inactive

Tell me the recorded outcome of this test for C=C(c1ccc(C(=O)O)cc1)c1cc2c(cc1C)C(C)(C)CCC2(C)C .
inactive

Tell me the recorded outcome of this test for NS(=O)(=O)c1cc(C(=O)O)c(NCc2ccco2)cc1Cl .
inactive

Tell me the recorded outcome of this test for CC(=O)O[C@H]1C(=O)[C@@]2(C)C([C@H](OC(=O)c3ccccc3)[C@]3(O)C[C@H](OC(=O)[C@H](O)[C@@H](NC(=O)c4ccccc4)c4ccccc4)C(C)=C1C3(C)C)[C@]1(OC(C)=O)CO[C@@H]1C[C@@H]2O (stereo not given in full) .
inactive
